B1: Pistol ribozyme (parent)
chain: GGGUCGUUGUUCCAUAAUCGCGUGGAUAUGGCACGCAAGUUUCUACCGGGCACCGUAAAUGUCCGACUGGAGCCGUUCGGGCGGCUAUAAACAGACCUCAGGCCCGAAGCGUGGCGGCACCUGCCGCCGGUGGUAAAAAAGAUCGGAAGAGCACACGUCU

Variants of: B1
assayName: aptazyme ON/OFF ratio, guanine; higher = stronger switching; co-transcriptional cleavage with and without guanine
observable: aptazyme ON/OFF ratio
Answers are plain numbers.

Below are worked cases with known answers.
U7G U8C G9C U10G C12G C13G	1.07
U7C U8G G9U U10A U11A C12U C13A	1.22
U7G G9U U10A U11C C12A C13G	1.21
U7G U8C G9C U10A C12U C13A	1.03
U7G G9C U10A U11G C12G C13A	1.1
U7C U8C G9U U10G C12A C13A	1.06
U7C U8G U10G U11G C12G C13U	1.26
U7C U8G G9A U10C U11G C12G C13A	1.23

// input: 8 variants below; output: aptazyme ON/OFF ratio for each
1. U7C U8C G9A C12U C13G
2. U8G C12A
3. U7C G9C U11G C12G C13U
4. U7C U10G U11A C12A C13A
5. U7A U8A G9A U10G U11C C12U
6. U7G U8G U10C U11A C12U C13G
7. U7A U8C G9C U10C U11C C13G
8. U7C U8C U10G U11A

1.27
1.69
1.07
1.2
1.05
1.37
1.05
1.24

// input: 2 variants below; output: aptazyme ON/OFF ratio for each
1. U7G U8G G9C U10C U11A C13U
2. U7C G9U C12G C13U

1. 1.41
2. 1.15

Just for reference, the RNAGym collection of RNA variant scans (doi:10.1021/acssynbio.7b00057) is where these values come from.
